Test system: Escherichia coli NIHJ JC-2

- MOLECULE: "CCn1cc(C(=O)O)c(=O)c2cc(F)c(N3CCNCC3)nc21 [ENX, reference compound]"
  MIC, µg/mL: 0.05
- MOLECULE: "CN[C@H]1CN(c2c(F)cc3c(=O)c(C(=O)O)cn(C4CC4)c3c2Cl)[C@@H]2CCO[C@H]12 (relative stereo)"
  MIC, µg/mL: 0.05
- MOLECULE: "COc1c(N2C[C@H](N)[C@H]3OCC[C@H]32)c(F)c(N)c2c(=O)c(C(=O)O)cn(C3CC3)c12 (relative stereo)"
  MIC, µg/mL: 0.025
- MOLECULE: "COc1c(N2C[C@@H](N)[C@H]3OC(C)C[C@H]32)c(F)cc2c(=O)c(C(=O)O)cn(C3CC3)c12 (relative stereo)"
  MIC, µg/mL: 0.1

---

Tested on: Staphylococcus aureus 50774
TEST PROTOCOL: Effect on systemic infection in mice
Assay type: in vivo, mice (male Std-ddy strain)
RECORDED CONDITIONS: 168 h; Staphylococcus aureus 50774 i.p. infection; oral, twice (immediately and 6 h after infection); survival 7 days after infection
Below, each of the compounds is paired with its reported log10 ED50 value.
PROPERTY LABEL: log10 ED50 (log10 of the value in mg/kg)

- COMPOUND: "COc1c(N2C[C@@H](N)[C@H]3OCC[C@H]32)c(F)c(C)c2c(=O)c(C(=O)O)cn(C3CC3)c12 (relative stereo)"
  TARGET ENTITY: "Staphylococcus aureus 50774"
  log10 ED50: -0.11
- COMPOUND: "N[C@H]1CN(c2nc3c(cc2F)c(=O)c(C(=O)O)cn3-c2ccc(F)cc2F)[C@@H]2CCO[C@@H]21 (relative stereo)"
  TARGET ENTITY: "Staphylococcus aureus 50774"
  log10 ED50: -0.24
- COMPOUND: "COc1c(N2C[C@@H](N)[C@H]3OCCC[C@H]32)c(F)cc2c(=O)c(C(=O)O)cn(C3CC3)c12 (relative stereo)"
  TARGET ENTITY: "Staphylococcus aureus 50774"
  log10 ED50: -0.03
- COMPOUND: "N[C@H]1CN(c2c(F)cc3c(=O)c(C(=O)O)cn(C4CC4)c3c2Cl)[C@@H]2CCO[C@@H]21 (relative stereo)"
  TARGET ENTITY: "Staphylococcus aureus 50774"
  log10 ED50: 0.05
- COMPOUND: "CCn1cc(C(=O)O)c(=O)c2cc(F)c(N3CCNCC3)nc21 [ENX, reference compound]"
  TARGET ENTITY: "Staphylococcus aureus 50774"
  log10 ED50: 1.00

---

Escherichia coli NIHJ JC-2 measurements of MIC, listed per entry.
PROPERTY LABEL: MIC (mg/L)

- MOLECULE: "COc1c(N2C[C@@H](N)[C@H]3OCCC[C@H]32)c(F)c(N)c2c(=O)c(C(=O)O)cn(C3CC3)c12 (relative stereo)"
  TARGET ENTITY: "Escherichia coli NIHJ JC-2"
  PROPERTY LABEL: "MIC"
  OBSERVED: 0.1
- MOLECULE: "CN[C@H]1CN(c2c(F)c(N)c3c(=O)c(C(=O)O)cn(C4CC4)c3c2OC)[C@@H]2CCO[C@H]12 (relative stereo)"
  TARGET ENTITY: "Escherichia coli NIHJ JC-2"
  PROPERTY LABEL: "MIC"
  OBSERVED: 0.05
- MOLECULE: "COc1c(N2C[C@@H](N)[C@H]3OCCC[C@H]32)c(F)cc2c(=O)c(C(=O)O)cn(C3CC3)c12 (relative stereo)"
  TARGET ENTITY: "Escherichia coli NIHJ JC-2"
  PROPERTY LABEL: "MIC"
  OBSERVED: 0.1
- MOLECULE: "N[C@H]1CN(c2c(F)cc3c(=O)c(C(=O)O)cn(C4CC4)c3c2F)[C@@H]2CCO[C@@H]21 (relative stereo)"
  TARGET ENTITY: "Escherichia coli NIHJ JC-2"
  PROPERTY LABEL: "MIC"
  OBSERVED: 0.006
- MOLECULE: "COc1c(N2C[C@H](N)[C@H]3OCCC[C@H]32)c(F)cc2c(=O)c(C(=O)O)cn(C3CC3)c12 (relative stereo)"
  TARGET ENTITY: "Escherichia coli NIHJ JC-2"
  PROPERTY LABEL: "MIC"
  OBSERVED: 0.1
- MOLECULE: "Cc1c(F)c(N2C[C@H](N)[C@H]3OCC[C@H]32)nc2c1c(=O)c(C(=O)O)cn2-c1ccc(F)cc1F (relative stereo)"
  TARGET ENTITY: "Escherichia coli NIHJ JC-2"
  PROPERTY LABEL: "MIC"
  OBSERVED: 0.2

---

Escherichia coli NIHJ JC-2 measurements of log10 MIC, listed per entry.
PROPERTY LABEL: log10 MIC (log10 of the value in µg/mL)

- COMPOUND: "N[C@H]1CN(c2nc3c(cc2F)c(=O)c(C(=O)O)cn3-c2ccc(F)cc2F)[C@@H]2CCO[C@@H]21 (relative stereo) [Example 11]"
  log10 MIC: -0.60
- COMPOUND: "CN[C@H]1CN(c2c(F)c(C)c3c(=O)c(C(=O)O)cn(C4CC4)c3c2OC)[C@@H]2CCO[C@H]12 (relative stereo) [Example 8]"
  log10 MIC: -0.70
- COMPOUND: "CN[C@H]1CN(c2nc3c(cc2F)c(=O)c(C(=O)O)cn3-c2ccc(F)cc2F)[C@@H]2CCO[C@H]12 (relative stereo) [Example 17]"
  log10 MIC: -1.00
- COMPOUND: "CN[C@H]1CN(c2c(F)cc3c(=O)c(C(=O)O)cn(C4CC4)c3c2OC)[C@@H]2CCO[C@H]12 (relative stereo) [Example 6]"
  log10 MIC: -1.60
- COMPOUND: "COc1c(N2C[C@@H](N)[C@H]3OCC[C@H]32)c(F)c(C)c2c(=O)c(C(=O)O)cn(C3CC3)c12 (relative stereo) [Example 16]"
  log10 MIC: -1.00
- COMPOUND: "N[C@H]1CN(c2c(F)cc3c(=O)c(C(=O)O)cn(C4CC4)c3c2OC(F)F)[C@@H]2CCO[C@@H]21 (relative stereo) [Example 14]"
  log10 MIC: -1.60
- COMPOUND: "Cc1c(F)c(N2C[C@H](N)[C@H]3OCC[C@H]32)c(C)c2c1c(=O)c(C(=O)O)cn2C1CC1 (relative stereo) [Example 24]"
  log10 MIC: -1.60
- COMPOUND: "N#Cc1c(N2C[C@@H](N)[C@H]3OCCC[C@H]32)c(F)cc2c(=O)c(C(=O)O)cn(C3CC3)c12 (relative stereo) [Example 34]"
  log10 MIC: -1.30
- COMPOUND: "COc1c(N2C[C@H](N)[C@H]3OCCC[C@H]32)c(F)c(N)c2c(=O)c(C(=O)O)cn(C3CC3)c12 (relative stereo) [Example 12]"
  log10 MIC: -1.00
- COMPOUND: "N[C@@H]1CN(c2c(F)cc3c(=O)c(C(=O)O)cn(C4CC4)c3c2OC(F)F)[C@@H]2CCO[C@H]12 (relative stereo) [Example 37]"
  log10 MIC: -1.00
- COMPOUND: "COc1c(N2C[C@@H](N)[C@H]3OCC[C@H]32)c(F)cc2c(=O)c(C(=O)O)cn(C3CC3)c12 (relative stereo) [Example 23]"
  log10 MIC: -1.60
- COMPOUND: "COc1c(N2C[C@H](N)[C@H]3OCC[C@H]32)c(F)cc2c(=O)c(C(=O)O)cn([C@@H]3C[C@@H]3F)c12 (relative stereo) [Example 2]"
  log10 MIC: -1.89

---

Escherichia coli NIHJ JC-2 measurements of MIC, listed per entry.

- COMPOUND: "COc1c(N2C[C@@H](N)[C@H]3OCC[C@H]32)c(F)c(N)c2c(=O)c(C(=O)O)cn(C3CC3)c12 (relative stereo)"
  MIC (µg/mL): 0.05
- COMPOUND: "C=Cc1c(N2C[C@H](N)[C@H]3OCC[C@H]32)c(F)cc2c(=O)c(C(=O)O)cn(C3CC3)c12 (relative stereo)"
  MIC (µg/mL): 0.05
- COMPOUND: "COc1c(N2C[C@H](N)[C@H]3OCC[C@H]32)c(F)cc2c(=O)c(C(=O)O)cn(C3CC3)c12 (relative stereo)"
  MIC (µg/mL): 0.013
- COMPOUND: "N[C@@H]1CN(c2nc3c(cc2F)c(=O)c(C(=O)O)cn3-c2ccc(F)cc2F)[C@@H]2CCO[C@H]12 (relative stereo)"
  MIC (µg/mL): 0.025
- COMPOUND: "N#Cc1c(N2C[C@H](N)[C@H]3OCC[C@H]32)c(F)cc2c(=O)c(C(=O)O)cn(C3CC3)c12 (relative stereo)"
  MIC (µg/mL): 0.05
- COMPOUND: "COc1c(N2C[C@H](N)[C@H]3OCC[C@H]32)c(F)c(C)c2c(=O)c(C(=O)O)cn(C3CC3)c12 (relative stereo)"
  MIC (µg/mL): 0.025
- COMPOUND: "Cc1c(F)c(N2C[C@@H](N)[C@H]3OCCC[C@H]32)c(C#N)c2c1c(=O)c(C(=O)O)cn2C1CC1 (relative stereo)"
  MIC (µg/mL): 0.05
- COMPOUND: "C#Cc1c(N2C[C@H](N)[C@H]3OCC[C@H]32)c(F)cc2c(=O)c(C(=O)O)cn(C3CC3)c12 (relative stereo)"
  MIC (µg/mL): 0.025
- COMPOUND: "Nc1c(F)c(N2C[C@@H](N)[C@H]3OCCC[C@H]32)c(F)c2c1c(=O)c(C(=O)O)cn2C1CC1 (relative stereo)"
  MIC (µg/mL): 0.013
- COMPOUND: "N[C@H]1CN(c2c(F)cc3c(=O)c(C(=O)O)cn(C4CC4)c3c2Cl)[C@@H]2CCO[C@@H]21 (relative stereo)"
  MIC (µg/mL): 0.013
- COMPOUND: "Nc1c(F)c(N2C[C@H](N)[C@H]3OCC[C@H]32)c(F)c2c1c(=O)c(C(=O)O)cn2C1CC1 (relative stereo)"
  MIC (µg/mL): 0.006
- COMPOUND: "CN[C@@H]1CN(c2c(F)cc3c(=O)c(C(=O)O)cn(C4CC4)c3c2OC)[C@@H]2CCO[C@@H]21 (relative stereo)"
  MIC (µg/mL): 0.1
- COMPOUND: "N[C@H]1CN(c2cc3c(cc2F)c(=O)c(C(=O)O)cn3C2CC2)[C@@H]2CCO[C@@H]21 (relative stereo)"
  MIC (µg/mL): 0.013
